Test system: HL-60 cells
Test: Proliferation inhibition, HL-60
Assay type: cell-based
Conditions: Homo sapiens, read-out: Potency IC50 HL-60
pIC50: −log10 of the molar value.
measured quantity: pIC50

| smiles | observed measurement |
| --- | --- |
| Cc1c(CN2CCC(Nc3ncnc4sc(CC(F)(F)F)cc34)CC2)ccc2c1cc(C#N)n2Cc1cn[nH]c1 | 6.17 |

----------
Molecular target: CYP 2C9 (Homo sapiens, UniProt P11712)
Sequence (P11712 whole entry): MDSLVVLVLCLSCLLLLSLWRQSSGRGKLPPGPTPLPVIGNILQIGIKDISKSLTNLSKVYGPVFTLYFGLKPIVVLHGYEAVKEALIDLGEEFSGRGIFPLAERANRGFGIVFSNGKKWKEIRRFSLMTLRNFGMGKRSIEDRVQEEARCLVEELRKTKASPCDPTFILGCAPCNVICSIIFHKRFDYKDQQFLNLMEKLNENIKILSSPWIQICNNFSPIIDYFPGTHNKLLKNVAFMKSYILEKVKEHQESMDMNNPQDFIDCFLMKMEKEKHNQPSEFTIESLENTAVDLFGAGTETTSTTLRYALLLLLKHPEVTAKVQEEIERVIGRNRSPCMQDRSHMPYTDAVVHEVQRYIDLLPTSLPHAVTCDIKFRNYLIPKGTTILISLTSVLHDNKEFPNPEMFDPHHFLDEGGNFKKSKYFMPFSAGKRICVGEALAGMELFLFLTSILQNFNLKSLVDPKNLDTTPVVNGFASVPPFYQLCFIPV
Assay: CYP inhibition 2C9
Format: in vitro ADME

| compound | test target | IC50 / nM |
| --- | --- | --- |
| Cc1c(CN2CCC(Nc3ncnc4sc(CC(F)(F)F)cc34)CC2)ccc2c1cc(C#N)n2Cc1cn[nH]c1 [MI-503] | CYP 2C9 (Homo sapiens, UniProt P11712) | 800 |

----------
Target: CYP 3A4 (Homo sapiens, UniProt P08684)
Sequence (P08684 whole entry): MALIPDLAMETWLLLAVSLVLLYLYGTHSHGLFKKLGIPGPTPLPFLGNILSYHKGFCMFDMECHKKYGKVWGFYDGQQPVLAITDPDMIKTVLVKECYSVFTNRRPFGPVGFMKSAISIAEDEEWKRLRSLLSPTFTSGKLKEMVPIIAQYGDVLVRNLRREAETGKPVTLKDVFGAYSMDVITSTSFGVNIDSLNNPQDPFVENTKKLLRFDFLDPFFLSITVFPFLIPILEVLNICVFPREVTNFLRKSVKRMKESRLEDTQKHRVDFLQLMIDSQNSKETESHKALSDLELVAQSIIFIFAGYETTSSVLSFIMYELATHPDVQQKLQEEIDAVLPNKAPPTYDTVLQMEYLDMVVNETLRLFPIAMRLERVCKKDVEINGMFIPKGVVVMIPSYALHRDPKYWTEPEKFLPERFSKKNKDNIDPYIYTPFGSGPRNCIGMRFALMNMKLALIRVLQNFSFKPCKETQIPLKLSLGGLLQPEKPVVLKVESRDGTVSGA
Assay: CYP inhibition 3A4
Assay type: in vitro ADME
pIC50: −log10 of the molar value.

| smiles | pIC50 |
| --- | --- |
| Cc1c(CN2CCC(Nc3ncnc4sc(CC(F)(F)F)cc34)CC2)ccc2c1cc(C#N)n2Cc1cn[nH]c1 | 6.00 |

----------
Biological target: CYP 2D6 (Homo sapiens, UniProt P10635)
Sequence (P10635 whole entry): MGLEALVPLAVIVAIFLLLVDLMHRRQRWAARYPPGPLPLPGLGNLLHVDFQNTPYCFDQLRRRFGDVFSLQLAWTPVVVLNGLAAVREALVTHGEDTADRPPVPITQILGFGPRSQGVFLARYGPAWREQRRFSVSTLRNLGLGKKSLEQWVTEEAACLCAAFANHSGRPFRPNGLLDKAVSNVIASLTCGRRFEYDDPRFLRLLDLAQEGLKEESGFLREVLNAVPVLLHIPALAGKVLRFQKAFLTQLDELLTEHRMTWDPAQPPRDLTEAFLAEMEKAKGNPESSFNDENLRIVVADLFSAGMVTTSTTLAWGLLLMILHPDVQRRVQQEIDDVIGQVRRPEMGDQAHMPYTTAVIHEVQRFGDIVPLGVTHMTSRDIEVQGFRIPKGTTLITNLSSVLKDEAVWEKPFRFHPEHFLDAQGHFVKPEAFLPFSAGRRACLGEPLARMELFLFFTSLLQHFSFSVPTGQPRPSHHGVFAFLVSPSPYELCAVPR
Experiment: CYP inhibition 2D6
Format: in vitro ADME

| compound | IC50, nM |
| --- | --- |
| Cc1c(CN2CCC(Nc3ncnc4sc(CC(F)(F)F)cc34)CC2)ccc2c1cc(C#N)n2Cc1cn[nH]c1 [MI-503] | 2400 |

----------
Biological target: menin (Homo sapiens, UniProt O00255)
Construct: purified menin (1–615 with GST-tag cleaved as described above); GST (TEV cleavable) (N, cleaved yes); made in house; host or cells: E. coli BL21 (DE3)
Sequence (O00255 1-615 isoform O00255-1): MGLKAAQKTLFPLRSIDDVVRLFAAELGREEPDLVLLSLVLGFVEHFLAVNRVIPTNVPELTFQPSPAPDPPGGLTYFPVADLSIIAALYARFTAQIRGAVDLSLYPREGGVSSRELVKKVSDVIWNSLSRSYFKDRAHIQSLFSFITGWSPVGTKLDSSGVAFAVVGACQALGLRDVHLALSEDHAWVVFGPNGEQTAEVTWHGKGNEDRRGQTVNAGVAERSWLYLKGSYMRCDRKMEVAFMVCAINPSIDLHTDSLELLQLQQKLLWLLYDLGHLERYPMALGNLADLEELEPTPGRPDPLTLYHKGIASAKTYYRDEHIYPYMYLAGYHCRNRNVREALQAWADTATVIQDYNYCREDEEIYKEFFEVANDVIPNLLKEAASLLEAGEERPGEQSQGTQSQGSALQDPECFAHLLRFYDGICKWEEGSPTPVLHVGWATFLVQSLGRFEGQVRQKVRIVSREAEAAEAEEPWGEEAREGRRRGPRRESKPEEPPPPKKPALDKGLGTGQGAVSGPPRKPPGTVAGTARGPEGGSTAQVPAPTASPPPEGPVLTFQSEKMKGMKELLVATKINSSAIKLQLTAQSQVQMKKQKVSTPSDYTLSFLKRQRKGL
Experiment: Isothermal Titration Calorimetry (ITC) on purified menin
Assay type: binding
measured quantity: Kd (nM)

| smiles | observed measurement |
| --- | --- |
| Cc1c(CN2CCC3(CC2)CN(c2ncnc4sc(CC(F)(F)F)cc24)C3)ccc2c1cc(C#N)n2CC(N)=O | 75 |

----------
Molecular target: menin-MLL interaction (Homo sapiens)
Construct: recombinant full length, His-tagged menin
Sequence (O00255 whole entry): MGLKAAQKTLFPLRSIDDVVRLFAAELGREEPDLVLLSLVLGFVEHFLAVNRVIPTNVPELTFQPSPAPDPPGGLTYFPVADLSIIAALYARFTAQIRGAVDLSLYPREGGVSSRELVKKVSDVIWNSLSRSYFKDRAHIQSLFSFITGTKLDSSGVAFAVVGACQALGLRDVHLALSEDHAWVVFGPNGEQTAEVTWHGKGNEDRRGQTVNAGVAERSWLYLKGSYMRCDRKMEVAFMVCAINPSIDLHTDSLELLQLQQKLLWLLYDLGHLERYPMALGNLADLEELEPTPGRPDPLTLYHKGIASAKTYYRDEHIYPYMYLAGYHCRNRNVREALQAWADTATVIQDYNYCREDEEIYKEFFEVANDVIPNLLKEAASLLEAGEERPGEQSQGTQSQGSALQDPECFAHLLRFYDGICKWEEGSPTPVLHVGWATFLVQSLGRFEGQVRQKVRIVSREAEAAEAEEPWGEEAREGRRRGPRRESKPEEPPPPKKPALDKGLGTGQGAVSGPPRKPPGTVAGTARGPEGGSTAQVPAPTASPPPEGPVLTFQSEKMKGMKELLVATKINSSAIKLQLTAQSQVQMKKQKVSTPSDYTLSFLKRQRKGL
Experiment: TR-FRET menin-MLL binding assay
Conditions: read-out: Potency IC50 Menin-MLL binding
pIC50: −log10 of the molar value.

| smiles | pIC50 |
| --- | --- |
| Cc1c(CN2CCC(Nc3ncnc4sc(CC(F)(F)F)cc34)CC2)ccc2c1cc(C#N)n2Cc1cn[nH]c1 | 7.10 |

----------
Test system: 401 cancer cell lines derived from 28 tissues of origin
Assay: Cell line proliferation panel (OmniScreen, 401 cancer cell lines)
Format: cell-based
Details: 120 h, read-out: IC50 in the vast majority of tested cell line models
pIC50: −log10 of the molar value.
measured quantity: pIC50

| smiles | test target | observed measurement |
| --- | --- | --- |
| Cc1c(CN2CCC3(CC2)CN(c2ncnc4sc(CC(F)(F)F)cc24)C3)ccc2c1cc(C#N)n2CC(N)=O | 401 cancer cell lines derived from 28 tissues of origin | < 5.00 |

----------
Test system: Jurkat cells
Experiment: Proliferation inhibition, Jurkat
Type: cell-based
Settings: Homo sapiens, read-out: Potency IC50 Jurkat
pIC50: −log10 of the molar value.
measured quantity: pIC50

| smiles | observed measurement |
| --- | --- |
| Cc1c(CN2CCC(Nc3ncnc4sc(CC(F)(F)F)cc34)CC2)ccc2c1cc(C#N)n2Cc1cn[nH]c1 | 6.25 |
